Target: TP receptor (Homo sapiens)
Sequence (P21731 1-343): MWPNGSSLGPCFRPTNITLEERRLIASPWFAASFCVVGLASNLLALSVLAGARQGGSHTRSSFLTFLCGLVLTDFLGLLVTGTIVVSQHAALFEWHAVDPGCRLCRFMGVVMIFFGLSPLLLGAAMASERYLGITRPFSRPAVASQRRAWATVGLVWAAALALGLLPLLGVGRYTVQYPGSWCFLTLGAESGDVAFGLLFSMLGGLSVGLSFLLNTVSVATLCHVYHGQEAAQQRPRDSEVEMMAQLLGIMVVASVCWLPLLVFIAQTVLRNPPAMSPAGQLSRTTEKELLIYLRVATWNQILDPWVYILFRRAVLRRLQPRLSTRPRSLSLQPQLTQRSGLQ
Assay: Prostanoid receptor antagonism (FLIPR), TP
Type: cell-based
Details: Table 1
For each record, write down the corresponding Kb.

Query string: Return reported Kb; argument: CCCCCCCCNC(=O)c1coc([C@@H]2CCCN2Cc2cc(F)ccc2CCC(=O)NS(=O)(=O)C(F)(F)F)n1 [Example 12e]
Result string: < 1 nM

Query string: Now the compound O=C(CCc1ccc(Cl)cc1CN1CCC[C@H]1c1nc(C(=O)NCCCCC2CCCCC2)co1)NS(=O)(=O)C(F)(F)F [Example 12b]
Result string: < 1 nM

Query string: Now the compound O=C(CCc1cc2c(cc1CN1CCC[C@H]1c1nc(C(=O)NCCCCC3CCCCC3)co1)OCO2)NS(=O)(=O)C(F)(F)F [Example 12d]
Result string: 0.3 nM

Query string: Now the compound COc1ccc(CCC(=O)NS(=O)(=O)C(F)(F)F)c(CN2CCC[C@H]2c2nc(C(=O)NCCCCC3CCCCC3)co2)c1 [Example 12c]
Result string: < 1 nM

Query string: Now the compound CCCCCCCCNC(=O)c1coc([C@@H]2CCCN2Cc2cc(OC)ccc2CCC(=O)NS(=O)(=O)C(F)(F)F)n1 [Example 12f]
Result string: < 1 nM

Query string: Now the compound O=C(CCc1ccc(F)cc1CN1CCC[C@H]1c1nc(C(=O)NCCCCC2CCCCC2)co1)NS(=O)(=O)C(F)(F)F [Example 12a]
Result string: < 1 nM
